Entries and their EC50 values follow.
molecular target: Stimulator of interferon genes protein (Homo sapiens); assay: Inhibition of STING in human THP1 cells in presence of PFO by IFN reporter gene assay; assay type: cell-based
Sequence (Q86WV6 whole entry): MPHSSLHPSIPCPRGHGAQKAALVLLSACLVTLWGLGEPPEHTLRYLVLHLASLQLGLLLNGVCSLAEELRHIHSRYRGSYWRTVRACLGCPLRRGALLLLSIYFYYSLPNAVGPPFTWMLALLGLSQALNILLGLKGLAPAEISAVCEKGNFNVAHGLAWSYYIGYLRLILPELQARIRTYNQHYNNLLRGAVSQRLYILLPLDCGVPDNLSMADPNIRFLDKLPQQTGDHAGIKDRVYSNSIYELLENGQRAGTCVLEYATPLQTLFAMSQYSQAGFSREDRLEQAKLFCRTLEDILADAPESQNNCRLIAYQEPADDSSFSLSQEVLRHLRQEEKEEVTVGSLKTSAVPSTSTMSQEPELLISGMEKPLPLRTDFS

These recorded examples may help you get a feel for the data.
BP1(=O)OC[C@H]2O[C@@H](n3cnc4c(N)ncnc43)[C@H](O)[C@@H]2OP(=O)(O)OC[C@H]2O[C@@H](n3cnc4c(=O)[nH]c(N)nc43)[C@H](O1)[C@@H]2O (stereo partly drawn)    < 100 nM
CCC[C@H]1[C@H]2OP(=O)(O)OC[C@H]3O[C@@H](n4cnc5c(N)ncnc54)[C@H](O)[C@@H]3OP(=O)(O)OC[C@H]1O[C@H]2n1cnc2c(=O)[nH]c(N)nc21    ≤ 30000 nM

Problem: # query: EC50 of entry BP1(=O)OC[C@H]2O[C@@H](n3cnc4c(=O)[nH]c(N)nc43)[C@H](OP(=O)(O)OC[C@H]3O[C@@H](n4cnc5c(N)ncnc54)[C@H](O)[C@@H]3O1)[C@@H]2O (stereo partly drawn)
Result: < 100 nM

From: ChEMBL document CHEMBL4342439
